System: MT-4 cells
Test: Cytotoxicity assay in MT-4 cells
Assay type: cell-based
Settings: 5 days, Cell-Titer Glo

# Smiles notation, CC50
rows = [
    ("N#C[C@]1(CO)O[C@@H](c2csc3c(N)ncnc23)[C@H](F)[C@@H]1O", "> 114 µM"),
]

###

Test system: HEp-2 cells
Test: Cytotoxicity assay in HEp-2 cells
Format: cell-based
Details: uninfected HEp-2 cells, 4 days, CellTiter Glo

# Compound, CC50
records = [
    ("N#C[C@]1(CO)O[C@@H](c2csc3c(N)ncnc23)[C@H](F)[C@@H]1O [Example 2]", "> 100 µM"),
]

###

Experiment: Cytotoxicity assay in MT-4 cells
Format: cell-based
Conditions: human, Cell-Titer Glo
Recorded CC50 at 5 days for the following molecules
Parameter measured: CC50 at 5 days

# Molecule, Parameter measured, Observed value
data = [
    ("N#C[C@]1(CO)O[C@@H](c2csc3c(N)ncnc23)[C@H](O)[C@@H]1O [Example 3]", "CC50 at 5 days", "> 57 µM"),
    ("[N-]=[N+]=N[C@]1(CO)O[C@@H](c2csc3c(N)ncnc23)[C@H](Cl)[C@@H]1O [Example 4]", "CC50 at 5 days", "93 µM"),
    ("CCOC(=O)[C@H](C)NP(=O)(OC[C@@]1(N=[N+]=[N-])O[C@@H](c2csc3c(N)ncnc23)[C@H](F)[C@@H]1O)Oc1ccccc1 (stereo partly shown) [Example PD1]", "CC50 at 5 days", "10.4 µM"),
    ("[N-]=[N+]=N[C@]1(CO)O[C@@H](c2csc3c(N)ncnc23)[C@H](F)[C@@H]1O [Example 1]", "CC50 at 5 days", "59 µM"),
]
